Cited source: patent US20250206841A1

- MEASURED_TARGET: T1, human Trop-2 expressed on cell surface (human, UniProt P09758 27-323)
- T1 sequence (looked up): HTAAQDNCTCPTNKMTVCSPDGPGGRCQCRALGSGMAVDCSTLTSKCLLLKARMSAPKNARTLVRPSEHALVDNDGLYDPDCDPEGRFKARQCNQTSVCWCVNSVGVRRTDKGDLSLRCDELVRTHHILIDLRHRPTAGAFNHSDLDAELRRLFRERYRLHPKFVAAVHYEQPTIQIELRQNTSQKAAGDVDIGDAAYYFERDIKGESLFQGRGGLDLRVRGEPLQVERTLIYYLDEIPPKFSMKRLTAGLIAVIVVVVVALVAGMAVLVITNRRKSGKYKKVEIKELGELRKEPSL
- TEST_DETAILS: cell-based or functional assay
QUANTITY_MEASURED: Internalization %, MDA-MB-231, 0.5 µg/ml, 2 h (%)
State just the number; it will be interpreted in %.

Sample records with Internalization %, MDA-MB-231, 0.5 µg/ml, 2 h:
[[record]]
binder = "5D4-2 (antibody, V domains shown) VH: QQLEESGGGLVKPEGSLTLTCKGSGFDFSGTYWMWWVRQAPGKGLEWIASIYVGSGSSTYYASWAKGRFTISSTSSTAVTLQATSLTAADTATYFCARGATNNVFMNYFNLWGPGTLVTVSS VL: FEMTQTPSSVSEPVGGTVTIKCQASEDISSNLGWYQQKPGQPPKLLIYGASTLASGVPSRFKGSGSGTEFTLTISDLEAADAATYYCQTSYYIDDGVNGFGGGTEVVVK"
reading_unit = "%"
data_value = 48

[[record]]
binder = "62E3 (antibody, V domains shown, Rabbit-derived clone; LEM construct: VH + rabbit IgG CH1 + human IgG1 CH2-CH3) VH: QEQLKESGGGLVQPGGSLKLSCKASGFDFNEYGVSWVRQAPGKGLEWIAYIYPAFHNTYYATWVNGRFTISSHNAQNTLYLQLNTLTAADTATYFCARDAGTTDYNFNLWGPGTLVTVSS VL: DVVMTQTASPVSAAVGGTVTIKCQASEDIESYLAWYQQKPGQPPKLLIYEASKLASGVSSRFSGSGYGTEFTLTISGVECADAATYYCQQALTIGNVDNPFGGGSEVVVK"
reading_unit = "%"
data_value = 42


Exam item: Tell us which Internalization %, MDA-MB-231, 0.5 µg/ml, 2 h value is on record for 63H3 (antibody, V domains shown, Rabbit-derived clone; LEM construct: VH + rabbit IgG CH1 + human IgG1 CH2-CH3) VH: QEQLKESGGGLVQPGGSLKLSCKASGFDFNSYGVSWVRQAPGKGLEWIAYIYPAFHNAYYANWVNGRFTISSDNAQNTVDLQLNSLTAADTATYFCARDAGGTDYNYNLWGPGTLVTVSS VL: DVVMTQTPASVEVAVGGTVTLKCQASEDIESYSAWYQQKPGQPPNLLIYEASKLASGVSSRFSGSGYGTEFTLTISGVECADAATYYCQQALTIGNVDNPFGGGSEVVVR
Marked response: 39
